Compiled notes: published IC50 values involving Non-receptor tyrosine-protein kinase TYK2 (Homo sapiens, UniProt P29597).

Sample records with IC50:
molecule	IC50
Cn1cc(-c2cc3nccn3c(-c3cnn(C4(CC#N)CN(CC(F)(F)C(F)F)C4)c3)n2)cn1	< 10 nM
Cc1cc(Nc2nc(N[C@@H]3C[C@H]4CC[C@@H](C3)N4C(=O)[C@@H]3CCCN3)nc3sccc23)n[nH]1	0.28 nM
CCC(CC)n1cc(-c2nc(-c3cnn(C4CN(C(=O)N(C)C)C4)c3)cn3nccc23)cn1	10 to 100 nM
CC[C@H](Cn1ccc2cnc(Nc3cnn(CC(N)=O)c3)nc21)C(C)C	< 100 nM

Request the reported IC50 associated with COc1ccc(CNC2(CC#N)CN(c3nc(Nc4cc(C)ns4)ncc3C)C2)cc1
< 50 nM

Moving on to the next molecule: COCCC(C1CCOC1)n1cc(-c2nc(-c3cnn(C)c3)cc3nccn23)cn1 (centres unmarked)
> 1000 nM

Moving on to the next molecule: CCNc1cc2ccc1C(=O)NCCCCCNc1nc(ncc1C)Nc1cc-2cnc1F
> 10000 nM

Moving on to the next molecule: Cn1cc(-c2cc3nccn3c(-c3cnn(C4(CCF)CN(S(C)(=O)=O)C4)c3)n2)cn1
10 to 100 nM

====

Compiled notes: published IC50 values involving Non-receptor tyrosine-protein kinase TYK2 (Homo sapiens).

Sample records with IC50:
molecule	assay.system	IC50
CCCS(=O)(=O)N[C@H]1C[C@@H](Nc2c(-c3nc(C(=O)NC)cs3)cnc3[nH]ccc23)C1	Non-receptor tyrosine-protein kinase TYK2 (Homo sapiens)	100 to 1000 nM
C[C@@H]1CCCC[C@H]1n1cc(-c2nc(-c3cnn(C[C@@H](O)CO)c3)cn3nccc23)cn1 (single isomer, unassigned)	Non-receptor tyrosine-protein kinase TYK2 (Homo sapiens)	10 to 100 nM
N#CCC(=O)N1CCC[C@@H](Nc2c(-c3cccc(CO)n3)cnc3[nH]ccc23)C1	Non-receptor tyrosine-protein kinase TYK2 (Homo sapiens)	10 to 100 nM

Proceeding to the next molecule to report its IC50.
State its IC50 on Non-receptor tyrosine-protein kinase TYK2 (Homo sapiens): C[C@H]1C[C@@H](Nc2c(-c3ccn(C(F)F)n3)cnc3[nH]ccc23)CN(C(=O)CC#N)C1
≤ 10 nM

====

Compiled notes: published pIC50 values involving Non-receptor tyrosine-protein kinase TYK2 (Homo sapiens, UniProt P29597).
pIC50: −log10 of the molar value.

Sample records with pIC50:
molecule	assay.system	pIC50
CC1(O)CCN(C(=O)c2ccc(Nc3cc(-c4c(F)cccc4F)nc4c3C(=O)NC4)cc2)CC1	Non-receptor tyrosine-protein kinase TYK2 (Homo sapiens, UniProt P29597)	6.87
CN1CCCC1CCNC(=O)c1noc2c1CN(c1ncnc3[nH]ccc13)CC2 (stereo not shown)	Non-receptor tyrosine-protein kinase TYK2 (Homo sapiens, UniProt P29597)	< 5.70
Cc1csc(-c2cnc3[nH]ccc3c2N[C@H]2C[C@@H](NS(=O)(=O)c3cccc(C#N)c3)C2)n1	Non-receptor tyrosine-protein kinase TYK2 (Homo sapiens, UniProt P29597)	7.00 to 8.00

Proceeding to the next molecule to report its pIC50.
Request the reported pIC50 associated with O=C1NCCCCOCc2cc(ccc2OC2CCC2)Nc2nccc(n2)-c2ccc1cc2[N+](=O)[O-]
< 5.00

====

pIC50: −log10 of the molar value.
Compiled notes: published pIC50 values involving Non-receptor tyrosine-protein kinase TYK2 (Homo sapiens, UniProt P29597).

molecule	pIC50
CCc1ccc(Cl)cc1-c1[nH]c(-c2cc(N)ncn2)cc1C(N)=O	8.00

Request the reported pIC50 associated with C[C@H]1C[C@@H](Nc2c(-c3nncs3)cnc3[nH]ccc23)CN(C(=O)CC#N)C1
≥ 8.00

Moving on to the next molecule: Cn1cc(-c2cc3nccn3c(-c3cnn(C4(CC#N)CN(C(=O)C5(C(F)(F)F)CC5)C4)c3)n2)cn1
7.00 to 8.00

Moving on to the next molecule: CS(=O)(=O)c1ccc(-c2cnc3[nH]ccc3c2N[C@@H]2CCCN(C(=O)CC#N)C2)nc1
≥ 8.00

Moving on to the next molecule: COc1cncc(C(CC#N)n2cc(-c3nc(-c4cnn(C)c4)cc4nccn34)cn2)c1 (centres unmarked)
7.00 to 8.00

Moving on to the next molecule: CCC(CC)n1cc(-c2nc(-c3cnn(CC(O)CO)c3)cn3nccc23)cn1 (centres unmarked)
7.00 to 8.00

====

Compiled notes: published IC50 values involving UniProt:P29597.

Sample records with IC50:
compound	reading
CCC(CC)n1cc(-c2nc(-c3cnn(C4CN(C(=O)CN)C4)c3)cn3nccc23)cn1	10 to 100 nM
CNC(=O)c1cnc(-c2cnc3[nH]ccc3c2N[C@@H]2CCCN(C(=O)CC#N)C2)o1	10 to 100 nM

State its IC50 on UniProt:P29597: COc1ncc(F)cc1[C@H]1CCCN1c1ccn2ncc(C(=O)N[C@H]3CC[C@H](O)CC3)c2n1
> 1000 nM

Moving on to the next compound: CC1CCCCCC1n1cc(-c2nc(-c3cnn(C)c3)cn3nccc23)cn1 (stereo not shown)
10 to 100 nM

Moving on to the next compound: Cc1cccc(Nc2nc(Nc3ccc4c(c3)NCC(O)CO4)ncc2C(N)=O)c1 (stereo not shown)
< 10 nM

Moving on to the next compound: N#CCC1(n2cc(-c3nc(-c4cnn(C5COC5)c4)cc4nccn34)cn2)CC2(CCC2)C1
< 10 nM

Moving on to the next compound: C[C@@H]1C[C@H](Nc2c(-c3ccncn3)cnc3[nH]ccc23)CN(C(=O)CC#N)C1
100 to 1000 nM

Moving on to the next compound: CCC(CC)n1cc(-c2nc(-c3cnn(CCS(C)(=O)=O)c3)cn3nccc23)cn1
10 to 100 nM

Moving on to the next compound: CCc1cc(O)c(F)cc1-c1cc2[nH]nc(C(=O)Nc3ccc(C)nc3)c2c(NCc2ccccc2N(C)S(C)(=O)=O)n1
19.9 nM

Moving on to the next compound: O=C1Nc2ccc(cc2)OCc2cc(ccc2OC2CCCOC2)Nc2nccc(n2)-c2ccc1cc2[N+](=O)[O-] (stereo not shown)
> 10000 nM

Moving on to the next compound: Cc1ccc(Cl)cc1-c1cc(-c2ncnc3[nH]ccc23)[nH]c1C(N)=O
23 nM

Moving on to the next compound: CNC(=O)c1n[nH]c2cc(-c3cc(F)c(O)cc3CC(F)(F)F)nc(NCc3cc(Cl)ccc3N(C)S(C)(=O)=O)c12
618 nM

Moving on to the next compound: O=C1NCCCCOCc2cc(ccc2N2CCOCC2)Nc2ncc(Cl)c(n2)-c2ccc1cc2Cl
1000 to 10000 nM

====

Compiled notes: published IC50 values involving Non-receptor tyrosine-protein kinase TYK2 (Homo sapiens).

compound	IC50
CCc1cc(O)c(F)cc1-c1cc2[nH]nc(C(=O)NC)c2c(NCc2cc(F)ccc2N(C)S(C)(=O)=O)n1	6.5 nM
O=C(CCCCl)Nc1cccc(-c2cnc3ccccc3n2)c1	> 50000 nM
CCC(CC)n1cc(-c2nc(-c3cnn(CC4(O)CCOCC4)c3)cn3nccc23)cn1	10 to 100 nM

Request the reported IC50 associated with O=C1NCCCCOCc2cc(ccc2OCC2CCCC2)Nc2nccc(n2)-c2ccc1cc2[N+](=O)[O-]
> 10000 nM

Moving on to the next compound: CC1CCOCc2cc(ccc2OC2CCCOC2)Nc2nccc(n2)-c2ccc(cc2N)C(=O)NC1 (stereo not drawn)
101 to 1000 nM

Moving on to the next compound: CC1CCNC(=O)c2ccc(c([N+](=O)[O-])c2)-c2ccnc(n2)Nc2ccc(OCC3COC3)c(c2)COC1 (stereo not drawn)
> 10000 nM

====

Compiled notes: published IC50 values involving Non-receptor tyrosine-protein kinase TYK2 (Homo sapiens).

Sample records with IC50:
compound	IC50
Cn1cc(-c2cn3nccc3c(-c3cn([C@]4(CC#N)C[C@@H](C#N)C4)nc3N)n2)cn1	0.17 nM
CC[C@H](Cn1ccc2cnc(Nc3cnn(CC(=O)O[C@@H]4C[C@@H](C(=O)OC(C)C)N(C)C4)c3)nc21)C(C)C	100 to 1000 nM
NC(=O)c1cnc(Nc2ccc3c(c2)NC[C@H](O)CO3)nc1NCCCN1CCOCC1	10 to 100 nM
CCC(Cn1ccc2cnc(Nc3cnn(CC(=O)OCCO)c3)nc21)C(C)C (stereo not shown)	< 100 nM
CCC[C@H](C)n1cc(-c2nc(-c3cnn(C(CO)CO)c3)cn3nccc23)cn1	100 to 1000 nM

Request the reported IC50 associated with CN1CCn2c(-c3cc4nccn4c(-c4cnn(C(CC#N)C5CC5)c4)n3)cnc2C1 (stereo not shown)
10 to 100 nM

Moving on to the next compound: CCc1ccc(C(F)(F)F)cc1-c1cc(-c2ncnc3[nH]ccc23)[nH]c1C(=O)NC
87 nM

Moving on to the next compound: CCCCOC(=O)Cn1cc(Nc2ncc3ccn(CC(CC)C(C)C)c3n2)cn1 (stereo not shown)
< 100 nM

Moving on to the next compound: O=C(NCc1ncccn1)c1csc(C2CC2C(=O)Nc2cc3c(Cl)cncc3s2)c1 (stereo not shown)
35 nM

Moving on to the next compound: Cn1cc(-c2cc3nccn3c(-c3cnn(C4(CC#N)CN(CCC#N)C4)c3)n2)cn1
10 to 100 nM

Moving on to the next compound: CCOC(=O)Cn1cc(Nc2ncc3ccn(C[C@H]4CC[C@@H](OC)CC4)c3n2)cn1
100 to 1000 nM

Moving on to the next compound: O=C(CN1CCCCC1)N1[C@@H]2CC[C@H]1C[C@H](Nc1nc(Nc3ncc(CO)s3)cc3ncccc13)C2
> 100 nM
